Source listed as patent US20260109776A1.

Could you please report measured Ligand Binding Inhibition (%) for the items listed next?
Molecular target: T1, human CD40 on cells (human, UniProt P25942 21-277)
T1 construct: also called CD40 receptor on human B cells
T1 sequence (P25942 21-277 limits assumed): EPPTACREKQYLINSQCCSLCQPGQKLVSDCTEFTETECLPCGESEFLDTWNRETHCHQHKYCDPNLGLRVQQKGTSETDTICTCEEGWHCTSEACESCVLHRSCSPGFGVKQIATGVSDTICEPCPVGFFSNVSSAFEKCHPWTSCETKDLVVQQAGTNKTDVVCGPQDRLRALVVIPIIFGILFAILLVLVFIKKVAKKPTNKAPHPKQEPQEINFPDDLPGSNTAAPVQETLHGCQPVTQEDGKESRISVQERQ
Assay: flow cytometry, labelled CD40L on CD40-293T cells, antibody at 2.5 ug/ml
Give just the number in %; leave the unit off.

// query Output Ligand Binding Inhibition (%) of 39C2 (antibody, IgG4, V domains shown, also called 4887-1) VH: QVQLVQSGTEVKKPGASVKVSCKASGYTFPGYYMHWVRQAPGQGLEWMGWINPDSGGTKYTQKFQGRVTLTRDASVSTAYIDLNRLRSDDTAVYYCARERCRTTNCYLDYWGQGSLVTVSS VL: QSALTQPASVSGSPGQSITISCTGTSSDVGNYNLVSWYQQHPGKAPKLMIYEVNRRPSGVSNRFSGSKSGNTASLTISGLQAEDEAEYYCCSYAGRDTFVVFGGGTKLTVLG
// result 7

// query Output Ligand Binding Inhibition (%) of 30A12 (antibody, IgG4, V domains shown, also called 4878-1) VH: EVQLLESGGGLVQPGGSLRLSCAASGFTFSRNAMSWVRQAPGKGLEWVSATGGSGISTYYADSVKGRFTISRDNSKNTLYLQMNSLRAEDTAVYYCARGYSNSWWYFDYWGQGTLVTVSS VL: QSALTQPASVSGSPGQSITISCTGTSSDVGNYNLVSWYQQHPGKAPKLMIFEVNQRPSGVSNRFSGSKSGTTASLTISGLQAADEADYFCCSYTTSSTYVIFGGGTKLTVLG
// result -16

// query Output Ligand Binding Inhibition (%) of 35F11 (antibody, IgG4, V domains shown, also called 4868-1) VH: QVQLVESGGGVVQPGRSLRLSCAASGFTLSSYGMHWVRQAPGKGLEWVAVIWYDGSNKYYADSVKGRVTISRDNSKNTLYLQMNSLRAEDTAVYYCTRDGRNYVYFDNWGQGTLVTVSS VL: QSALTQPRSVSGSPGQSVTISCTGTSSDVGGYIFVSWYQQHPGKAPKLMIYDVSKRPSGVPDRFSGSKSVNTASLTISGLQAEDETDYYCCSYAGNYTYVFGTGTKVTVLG
// result -15

// query Output Ligand Binding Inhibition (%) of 4G7 (antibody, IgG4, V domains shown, also called 4869-1) VH: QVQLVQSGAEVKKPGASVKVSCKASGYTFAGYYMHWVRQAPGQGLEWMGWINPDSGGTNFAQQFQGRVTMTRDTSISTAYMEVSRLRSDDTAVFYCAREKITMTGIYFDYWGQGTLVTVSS VL: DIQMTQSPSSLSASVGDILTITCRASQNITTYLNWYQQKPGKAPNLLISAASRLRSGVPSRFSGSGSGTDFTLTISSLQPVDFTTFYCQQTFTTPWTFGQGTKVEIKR
// result 21
